Recorded OD 492 nm for the following binders
# SYSTEM TESTED: purified rabies virus glycoprotein (rabies virus ERA strain) (rabies virus strain ERA, UniProt P03524 20-524)
# EXPERIMENT DESCRIPTION: phage ELISA on coated purified G protein (ERA), anti-M13-HRP
TEST READOUT: OD 492 nm (OD 492 nm)

INSERT INTO results (binder, unit_name, value_observed) VALUES
  ('SC04-021 (scFv) scFv: AMAEVQLVESGGGVVQPGRSLRLSCAASGFTFSSYGMHWVRQAPGKGLEWVAVISYDGSSKYYADSVKGRFTISRDNSKNTLYLQMNSLRAEDTAVYYCAKGSVLGDAFDIWGQGTMVTVSSGTGGSGGTGSGTGGSTDIQMTQSPFSLSASVGDRVTITCRASQGIGSSLAWYQQKPGKAPKLLIYAASSLQSGVPSRFSGSGSGTDFTLTISSLQPEDFATYFCLQHHDYPLTFGGGTKLEIKRAAA', 'OD 492 nm', 0.278),
  ('SC04-098 (scFv) scFv: AMAEVQLVQSGGGAVQPGRSLRLSCAASGFTFSSYGMHWVRQAPGKGLEWVAVILYDGSDKFYADSVKGRFTISRDNSKNTLYLQMNSLRAEDTAVYYCAKVAVAGTHFDYWGQGTLVTVSSGTGGSGGTGSGTGGSTDIQMTQSPSSLSASVGDRVTITCRASQGIRNDLGWYQQKPGKAPKLLIYAASSLQSGVPSRFSGSGSGTDFTLTISSLQPEDFATYYCQQLNSYPPTFGGGTKVEIKRAAA', 'OD 492 nm', 0.798),
  ('SC04-097 (scFv) scFv: AMAEVQLVQSGGHLVQPGGSLRLSCAASGFTFSSYAMSWVRQAPGKGLEWVSLIIGSGRSTYYADSVKGRFTISRDNSKNTLYLQMNSLRAEDTAVYYCAKTASNLGRGGMDVWGQGTTVTVSSGTGGSGGTGSGTGGSTDIQLTQSPSSLSASVGDRVTITCRASQGISSHLAWYQQKPGKAPKLLIYAASSLQSGVPSRFSGSGSGTEFTLTISSLQPEDFATYYCQQFNSYPITFGQGTRLEIKRAAA', 'OD 492 nm', 0.835);
